qAC50 for assorted molecules
test system: uninfected HeLa-ACE2 cells; details: Hela-ACE2 Uninfected Cell Toxicity; relation in column qAC50 Mode; unit not given
// print number alone

// worked examples, qAC50 included
{"molecule": "CC(c1cccc2ccccc12)N1CCC(C(=O)NCc2ccc(Cl)cc2)CC1 (stereo not shown)", "readout_type": "qAC50", "measured_number": "1.885e-5"}
{"molecule": "COc1ccc(CNC(=O)C2CCN(C(C)c3cccc4ccccc34)C2)cc1 (stereo not shown)", "readout_type": "qAC50", "measured_number": "2.965e-5"}
{"molecule": "Cc1cccc(/C=N/Nc2cc(N3CCOCC3)nc(OCCc3ccccn3)n2)c1 [Apilimod, reference compound]", "readout_type": "qAC50", "measured_number": "5.705e-6"}

As a next step, examine the molecule that follows.
# molecule C[C@H](c1cccc2ccccc12)N1CCC(C(=O)NCc2ccc(Cl)cc2)CC1 ; its qAC50 = 1.447e-5

====

tested on: SARS-CoV-2; settings: Hela-ACE2 % Positive SARS-CoV-2
Counter-ions that a name gives are not always drawn.
readout_type: Data Mode

{"compound": "COc1ccc(C[C@H](N)C(=O)N[C@H]2[C@@H](O)[C@H](n3cnc4c(N(C)C)ncnc43)O[C@@H]2CO)cc1 [Puromycin dihydrochloride, reference compound]", "readout_type": "Data Mode", "result": "decreasing"}
{"compound": "CC(c1cccc2ccccc12)N1CCC(C(=O)NCc2ccc(Cl)cc2)CC1 (stereo not shown) [Compound 13]", "readout_type": "Data Mode", "result": "decreasing"}
{"compound": "COc1ccc(CNC(=O)C2CCN(C(C)c3cccc4ccccc34)C2)cc1 (stereo not shown) [Compound 17]", "readout_type": "Data Mode", "result": "decreasing"}

====

test: Mouse liver microsomal stability assay; settings: CD1, mouse, microsomes, pH 7.4
half-life at 0.5 μM for assorted compounds
Entry rule: numbers only, all in min.

// worked examples, half-life at 0.5 μM included
{"compound": "COc1ccc(CNC(=O)C2CCN(C(C)c3cccc4ccccc34)CC2)cc1 (stereo not drawn)", "quantity_unit": "min", "half-life at 0.5 μM": 21.5}
{"compound": "COc1ccc(CNC(=O)C2CCN(C(C)c3cccc4ccccc34)C2)cc1 (stereo not drawn)", "quantity_unit": "min", "half-life at 0.5 μM": 10.3}

# compound COc1ccc(CC(=O)N2CCN([C@@H](C)c3cccc4ccccc34)CC2)cc1 ; its half-life at 0.5 μM = 7.97

====

assay: physchem; conditions: 25 °C, pH 2, aqueous buffer, kinetic from dmso stock
readout_type: solubility kinetic at 24 h

{"compound": "COc1ccc(CC(=O)NC2CCN([C@H](C)c3cccc4ccccc34)CC2)cc1", "readout_type": "solubility kinetic at 24 h", "result": "> 24.9 µg/mL"}
{"compound": "C[C@@H](c1cccc2ccccc12)N1CCC(C(=O)NCC2CCCCC2)CC1 (racemic)", "readout_type": "solubility kinetic at 24 h", "result": "> 23.1 µg/mL"}
{"compound": "COc1ccc(CC(=O)NC2CCN([C@@H](C)c3cccc4ccccc34)CC2)cc1", "readout_type": "solubility kinetic at 24 h", "result": "> 24.8 µg/mL"}
{"compound": "COc1ccc(CNC(=O)C2CCN(Cc3cccc4ccccc34)CC2)cc1", "readout_type": "solubility kinetic at 24 h", "result": "> 24.9 µg/mL"}
{"compound": "C[C@@H](c1cccc2ccccc12)N1CCC(C(=O)NCc2ccncc2)CC1 (racemic)", "readout_type": "solubility kinetic at 24 h", "result": "> 17.3 µg/mL"}

# compound COc1ccc(CNC(=O)C2CCN([C@H](C)c3ccccc3)CC2)cc1 ; its solubility kinetic at 24 h = > 22.1 µg/mL

# compound Cc1ccc(CNC(=O)C2CCN([C@@H](C)c3cccc4ccccc34)CC2)cc1 (stereo in doubt) ; its solubility kinetic at 24 h = > 25 µg/mL

# compound C[C@H](c1cccc2ccccc12)N1CCC(C(=O)NCc2ccc(Cl)cc2)CC1 ; its solubility kinetic at 24 h = > 24.1 µg/mL

# compound COc1ccc(CNC(=O)[C@@H]2CCN([C@H](C)c3cccc4ccccc34)C2)cc1 (stereo in doubt) ; its solubility kinetic at 24 h = > 25.2 µg/mL

# compound Cc1ccc(CNC(=O)C2CCN([C@H](C)c3cccc4ccccc34)CC2)cc1 ; its solubility kinetic at 24 h = > 24.2 µg/mL
